Entry source: PubChem BioAssay (NCATS)

# Tested on: Tov112D
# EXPERIMENTAL_DETAILS: Primary qHTS to identify gynecologic anti-cancer compounds using libraries of approved drugs and bioactive compounds (AID 1345084); note: % is set by controls: 0 for no effect and ±100 for the full control effect; nearly all actives have a fitted effect of over 55% in size
# RUN_PARAMETERS: Gynecologic cancer cell panel viability, ATPlite luminescence, 48 h; series mostly up to 57.5 µM
Inconclusive results are not listed. Calls of active or inactive are those of the source. Calls come from the whole dose curve; as a rule, active = well fitted cell-killing curve with a large enough effect; inconclusive = small, poorly fitted or top-dose-only effect, or effect the other way; inactive = flat fitted curve, though single readings scatter.
MEASUREMENT_NAME: activity change, negative = cytotoxicity

Previously resolved entries follow.
1. N[C@@H](CSSC[C@H](N)C(=O)O)C(=O)O = 1.24% [at 0.462 µM] (inactive)
2. NCCNCCNCCNCCN = 0.19% [at 11.6 µM] (inactive)
3. NS(=O)(=O)c1cc2c(cc1C(F)(F)F)NC(Cc1ccccc1)NS2(=O)=O (configuration not stated) = inactive
4. O=C1NS(=O)(=O)c2ccccc21 = inactive
5. CCCCN(CCCC)CC(O)c1cc(Cl)cc2c1-c1ccc(Cl)cc1/C2=C/c1ccc(Cl)cc1 (configuration not stated) = inactive

The value of activity change, negative = cytotoxicity measured for the compound O=S(=O)(O)c1cc(I)c(O)c2ncccc12 turned out to be inactive

----------
# EXPERIMENTAL_DETAILS: Nrf2 qHTS screen for inhibitors: Validation (AID 493153);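 note: A549 cells with ARE-driven firefly luciferase reporter reporting Nrf2 activity; % of control where 0% means no effect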
# RUN_PARAMETERS: A549 ARE-Fluc reporter, 18-24 h; luciferase luminescence
Results filed as inconclusive are left out. Activity calls are given as the source filed them. Calls come from the whole dose curve; as a rule, active = well fitted inhibition curve with a large enough effect in the main read-out, with a control signal flat (not every such curve was filed as active); inconclusive = small, poorly fitted or top-dose-only effect, or effect the other way, or a change in a side signal; inactive = no such curve, though single readings can be large or run the other way.
MEASUREMENT_NAME: outcome

Previously resolved entries follow.
1) CNCCC(Oc1ccc(C(F)(F)F)cc1)c1ccccc1 (stereo unspecified) = inactive
2) CC(C)(C(=O)O)c1ccc(C(O)CCCN2CCC(C(O)(c3ccccc3)c3ccccc3)CC2)cc1 (stereo unspecified) = inactive
3) CN(C)CCOC(C)(c1ccccc1)c1ccccn1 (stereo unspecified) = inactive
4) CCN(CC)CCOC(=O)C1(C2CCCCC2)CCCCC1 = inactive
5) CCN(CC)C(C)CN1c2ccccc2Sc2ccccc21 (stereo unspecified) = inactive

The value of outcome measured for the molecule N=c1c[n+](N2CCOCC2)[n-]o1 turned out to be inactive

----------
# EXPERIMENTAL_DETAILS: qHTS of pediatric cancer cell lines to identify multiple opportunities for drug repurposing: Primary screen for SK-N-MC cells (AID 1347093);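 note: plate controls were DMSO neutral control for no effect and bortezomib for full effect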
# RUN_PARAMETERS: SK-N-MC viability, CellTiter-Glo luminescence, 48 h; series mostly up to 46 µM
Inconclusive results are not listed. Activity calls are given as the source filed them. Calls come from the whole dose curve; as a rule, active = well fitted cell-killing curve with a large enough effect; inconclusive = small, poorly fitted or top-dose-only effect; inactive = no such curve, though single readings can be large or run the other way.
Outcome (select one): active, inactive

1. CC(=O)Oc1c(C)c(C)c2c(c1C)CC[C@@](C)(CCC[C@H](C)CCC[C@H](C)CCCC(C)C)O2 = inactive

Entry CC1(C)[C@@H]2CC[C@@]1(C)C(=O)C2 : call = ? inactive

Entry Cc1cc2nc3c(=O)[nH]c(=O)nc-3n(C[C@H](O)[C@H](O)[C@H](O)CO)c2cc1C : call = ? inactive

Entry O=C(Oc1ccccc1C(=O)O)c1ccccc1O : call = ? inactive

Entry NC(=O)c1ncn([C@@H]2O[C@H](CO)[C@@H](O)[C@H]2O)n1 : call = ? inactive

Entry O=C(O)COc1nn(Cc2ccccc2)c2ccccc12 : call = ? inactive

----------
Collected activity change, negative = cytotoxicity values appear next to each entry.
# Tested on: MKL-2
# EXPERIMENTAL_DETAILS: qHTS assay to identify novel small-molecules to repurpose for Merkel cell carcinoma treatment (AID 1296009); note: % is set by controls: 0 for no effect and ±100 for the full control effect; nearly all actives have a fitted effect of over 60% in size
# RUN_PARAMETERS: MCC and control cell lines, CellTiter-Glo viability, 72 h; series mostly up to 46 µM
Results filed as inconclusive are left out. Activity calls are given as the source filed them. Calls come from the whole dose curve; as a rule, active = well fitted inhibition curve with a large enough effect; inconclusive = small, poorly fitted or top-dose-only effect; inactive = flat fitted curve, though single readings scatter.

1. C[C@@H]1CC[C@@]2(OC1)O[C@H]1C[C@H]3[C@@H]4CC[C@H]5C[C@@H](O)CC[C@]5(C)[C@H]4CC(=O)[C@]3(C)[C@H]1[C@@H]2C = 2.92% [at 4.84 µM] (inactive)
2. C/C(=C(\CCOP(=O)(O)O)SC(=O)c1ccccc1)N(C=O)Cc1cnc(C)nc1N = 12.5% [at 4.84 µM] (inactive)
3. NC(N)=NCCC[C@H](N)C(=O)O = 13.9% [at 4.84 µM] (inactive)

Pending molecule:
The value of activity change, negative = cytotoxicity measured for the molecule NCCNCCNCCNCCN turned out to be -0.706% [at 9.22 µM] (inactive)
